src = patent US20040259833A1

- Tested on: Caulobacter cresentus
- test.method.notes: microbe, parasite or virus in culture
- Type: cell-based
- condition.info: Caulobacter, read-out: IC50, Caulobacter cresentus
Catalogue of compounds with associated IC50
readout.kind: IC50 (µM)

compound	value.relation.sign	endpoint.value
Clc1ccc([B-]2(c3ccc(Cl)cc3)[NH2+]CCO2)cc1 [(5)]	=	17
c1ccc([B-]2(c3ccccc3)Oc3cccc4ccc[n+]2c34)cc1 [(3)]	>	100
Fc1ccc([B-]2(c3ccc(F)cc3)[NH2+]CCO2)cc1 [(4)]	=	85
Fc1ccc([B-]2(c3ccc(F)cc3)Oc3cccc4ccc[n+]2c34)cc1 [(1)]	=	23
Clc1ccc([B-]2(c3ccc(Cl)cc3)Oc3cccc4ccc[n+]2c34)cc1 [(2)]	=	16
